system: penicillin-sensitive streptococcus pneumoniae (PSSP); assay: In vitro antibacterial activity, agar dilution method (clinical isolates); assay type: cell-based; conditions: clinically isolated strains, Gram-positive, read-out: MIC90 S. pneumoniae PSSP
property-label: MIC90 (µg/mL)
Report the figure in µg/mL without appending any unit label.

Worked examples, 3 compounds total:
CCN(CC)S(=O)(=O)N1CC(SC2=C(C(=O)O)N3C(=O)[C@H]([C@@H](C)O)[C@H]3[C@H]2C)C1 ... 0.008
C[C@@H](O)[C@H]1C(=O)N2C(C(=O)O)=C(S[C@H]3CCN(S(N)(=O)=O)C3)[C@H](C)[C@H]12 ... 0.016
C[C@@H](O)[C@H]1C(=O)N2C(C(=O)O)=C(SC3CCCN(S(N)(=O)=O)C3)[C@H](C)[C@H]12 (stereo partly drawn) ... 0.016

Please report the recorded MIC90 for C[C@@H](O)[C@H]1C(=O)N2C(C(=O)O)=C(SC3CN(S(N)(=O)=O)C3)[C@H](C)[C@H]12 .
0.008

Please report the recorded MIC90 for C[C@@H](O)[C@H]1C(=O)N2C(C(=O)[O-])=C(SC3CN(S(=O)(=O)NCC(O)CN)C3)[C@H](C)[C@H]12.[Na+] (stereo partly drawn) [sodium salt of compound 9] .
0.008

Please report the recorded MIC90 for C[C@@H](O)[C@H]1C(=O)N2C(C(=O)O)=C(S[C@@H]3CN[C@H](C(=O)N(C)C)C3)[C@H](C)[C@H]12 [meropenem, Meropenem, reference compound] .
0.016

----------
Catalogue of MIC90 readings, one per entry.
tested on: methicillin-resistant staphylococcus epidermidis (MRSE); test: In vitro antibacterial activity, agar dilution method (clinical isolates); type: cell-based; details: clinically isolated strains, Gram-positive, read-out: MIC90 S. epidermidis MRSE
Report the figure in mg/L without appending any unit label.

Worked examples, 5 compounds total:
CCCCN(CCCC)S(=O)(=O)N1CC(SC2=C(C(=O)O)N3C(=O)[C@H]([C@@H](C)O)[C@H]3[C@H]2C)C1 [Compound 8] ... 8
C[C@@H](O)[C@H]1C(=O)N2C(C(=O)O)=C(SC3CN=CN(S(N)(=O)=O)C3)[C@H](C)[C@H]12 (stereo partly shown) [Compound 4] ... 16
C[C@@H](O)[C@H]1C(=O)N2C(C(=O)O)=C(SC3CN(S(N)(=O)=O)C3)[C@H](C)[C@H]12 [Compound 1] ... 4
C[C@@H](O)[C@H]1C(=O)N2C(C(=O)O)=C(S[C@@H]3CN[C@H](CNS(N)(=O)=O)C3)[C@H](C)[C@H]12 [doripenem, Doripenem, reference compound] ... 16
C[C@@H](O)[C@H]1C(=O)N2C(C(=O)O)=C(SC3CNCN(S(N)(=O)=O)C3)[C@H](C)[C@H]12 (stereo partly shown) [Compound 5] ... 16

Please report the recorded MIC90 for C[C@@H](O)[C@H]1C(=O)N2C(C(=O)[O-])=C(SC3CN(S(=O)(=O)NCC(O)CN)C3)[C@H](C)[C@H]12.[Na+] (stereo partly shown) [sodium salt of compound 9] .
8

Please report the recorded MIC90 for C[C@@H](O)[C@H]1C(=O)N2C(C(=O)O)=C(SC3CCCN(S(N)(=O)=O)C3)[C@H](C)[C@H]12 (stereo partly shown) [Compound 3] .
8

Please report the recorded MIC90 for C[C@@H](O)[C@H]1C(=O)N2C(C(=O)O)=C(S[C@H]3CCN(S(N)(=O)=O)C3)[C@H](C)[C@H]12 [Compound 2] .
8

Please report the recorded MIC90 for C[C@@H](O)[C@H]1C(=O)N2C(C(=O)O)=C(SC3CN(S(=O)(=O)NCC(N)=O)C3)[C@H](C)[C@H]12 [Compound 10] .
16

Please report the recorded MIC90 for C[C@@H](O)[C@H]1C(=O)N2C(C(=O)O)=C(SC3CN(S(=O)(=O)N(C)C)C3)[C@H](C)[C@H]12 [Compound 6] .
16
